In this section, each of the binders is paired with its reported EC50 (read off the curve).
- subject_of_test: T1, human CTLA4-Fc (Fitzgerald #30R-CD152) (human, UniProt P16410 38-152)
- T1 construct: Bought reagent; also called biotinylated-CTLA4; human CTLA-4 (Fitzgerald); not shown: Fc part of the bought fusion
- measurement_protocol: binding ELISA, CTLA4-Fc coated, sample titrated, anti-human IgG Fc-HRP, chemiluminescence, data normalised to % [upper panel]

Consider the binder shown here: CD86 mutant clone 1040, gamma2/gamma4 fusion (Fc fusion, Expressed as gamma2/gamma4 fusion, protein A purified; not shown: gamma2/gamma4 Fc) APLKIQAYFNETADLPCQFANSQNLSLSELVVFWQDQENLVLNEVYLGKERFDSVDSKYMGRTSFDSDSWTLRLHNLQIKDKGRYQCIIHHKKPTGMINIHQMNSELSVLA What is its recorded EC50 (read off the curve)?
~0.009 µg/mL

What value of EC50 (read off the curve) has been recorded for this entry: CD86 mutant clone 1042, gamma2/gamma4 fusion (Fc fusion, Expressed as gamma2/gamma4 fusion, protein A purified; not shown: gamma2/gamma4 Fc) APLKIQAYFNETADLPCQFANSQNLSLSELVVFWQDQENLVLNEVYLGKEIFDSVSSKYMGRTSFDSDSWTLRLHNLQIKDKGIYQCIIHHKKPSGMVKIHQMDSELSVLA
~0.3 µg/mL

Fill in the blank: the reported EC50 (read off the curve) of CD86 mutant clone 1041, gamma2/gamma4 fusion (Fc fusion, Expressed as gamma2/gamma4 fusion, protein A purified; not shown: gamma2/gamma4 Fc) APLKIQAYLNETADLPCQFANSQNLSLSELVVFWQDQENLVLNEVYLGKEKFDSVDSKYMGRTSFDSDSWTLRLHNLQIKDKGIYQCIIHHKKPTGLVKIHEMNSELSVLA is ____.
~0.09 µg/mL

Item CD86 mutant clone 1038, gamma2/gamma4 fusion (Fc fusion, Expressed as gamma2/gamma4 fusion, protein A purified; not shown: gamma2/gamma4 Fc) APLKIQAYFNETADLPCQFANSQNLSLSELVVFWQDQENLVLNEVYLGKEKFDSVDSKYMGRTSFDSDSWTLRLHNLQIKDKGIYQCIIHHKKPTGMVKIHEMNSELSVLA has what recorded EC50 (read off the curve)?
~0.1 µg/mL

In the following, a different binder is considered.
Need EC50 (read off the curve) of CD86 mutant clone 1039, gamma2/gamma4 fusion (Fc fusion, Expressed as gamma2/gamma4 fusion, protein A purified; not shown: gamma2/gamma4 Fc) APLKIQAYFNETADLPCQFANSQNLSLSELVVFWQDQENLVLNEVYLGKEKFDSVSSKYMGRTSFDSDSWTLRLHNLQIKDKGIYQCIIHHKKPSGMVKIHQMDSELSVLA , thanks.
~0.04 µg/mL

The measured values listed here are drawn from patent US20170304437A1.
